# TESTED TARGET: T1, FcRn-p3 fusion protein (human, UniProt P55899 24-297; P61769 21-119)
# T1 construct: baculovirus expressed; coated on ELISA wells; not shown: amino terminal part of bacteriophage p3 protein and CVDE protein
# T1 sequence (P55899 24-297, chain 1 of 2): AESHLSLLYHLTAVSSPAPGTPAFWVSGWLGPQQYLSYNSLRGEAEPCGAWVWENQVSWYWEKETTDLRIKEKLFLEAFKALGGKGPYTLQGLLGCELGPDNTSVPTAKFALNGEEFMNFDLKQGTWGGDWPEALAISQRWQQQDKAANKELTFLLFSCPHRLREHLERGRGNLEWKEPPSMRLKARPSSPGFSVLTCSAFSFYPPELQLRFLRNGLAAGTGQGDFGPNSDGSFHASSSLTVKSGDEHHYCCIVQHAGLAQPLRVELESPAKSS
# T1 sequence (P61769 21-119, chain 2 of 2): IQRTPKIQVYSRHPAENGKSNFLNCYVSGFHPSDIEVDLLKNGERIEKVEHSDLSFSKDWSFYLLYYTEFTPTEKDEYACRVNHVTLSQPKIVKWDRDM
# MEASUREMENT NOTES: phage ELISA pH6
Decide using Ratio/Fc-H: a value greater than or equal to 2 fold is rule met, a smaller one is rule not met.

Some solved cases for reference:
Hello, I need to know if M3A_06 (other, EU numbering) CPPCPAPELLGGPSVLLFPPKPKDTLMISRTPEVTCVVEDVSHEDPEVKFNWYVDGVEVHNAKTKPREEQYNSTYRVVSVLTVLHQDWLNGKEYKCKVSNKALPAPIEKTISKAKGQPREPQVYTLPPSRDELTKNQVSLTCLVKGFYPSDITVEWESNGQPENNYKTTPPMLDSDGSFFLYSKLTVDKSRWQQGNVFSCSVMHEALHNHYTQKSLSLSPGK has measured Ratio/Fc-H not below 2 fold. Thanks! rule not met

Evaluate T8A_24 (other, EU numbering) CPPCPAPELLGGPSVFLFPPKPKDTLMISRTPEVTCVVEDVSHEDPEVKFNWYVDGVEVHNAKTKPREEQYNSTYRVVSVLPVLHQDWLNGKEYKCKVSNKALPAPIEKTISKAKGQPREPQVYTLPPSRDELTKNQVSLTCLVKGFYPSDIVVEWESNGQPENNYKTTPPVLDSDGSFFLYSKLTVDKSRWQQGNVFSCSVMHEALHSHYTQKSLSLSPGK : Ratio/Fc-H at minimum 2 fold? rule met

hey, is Ratio/Fc-H for this one >= 2 fold? M3B_23 (other, EU numbering) CPPCPAPELLGGPSVLLFPPKPKDTLMISRTPEVTCVVEDVSHEDPEVKFNWYVDGVEVHNAKTKPREEQYNSTYRVVSVLPVLHQDWLNGKEYKCKVSNKALPAPIEKTISKAKGQPREPQVYTLPPSRDELTKNQVSLTCLVKGFYPSDIAVEWESNGQPENNYKTTPPVLDSDGSFFLYSKLTVDKSRWQQGNVFSCSVMHEALHNHYTQKSLSLSPGK rule not met

Could you now consider this next binder?
Quick check, Ratio/Fc-H >= 2 fold? C3A_01 (other, EU numbering) CPPCPAPELLGGPSVFLFPPKPKDTLMISRTPEVTCVVVDVSHEDPEVKFNWYVDGVEVHNAKTKPREEQYNSTYRVVSVLTVLHQDWLDGKEYKCKVSNKALPVPIEKTISKAKGQPREPQVYTLPPSRDELTKNQVSLTCLVKGFYPSDIAVEWESNGQPENNYKTTPPVLDSDGSFFLYSKLTVDKSRWQQGNVFSCSVMHEALHYHYTQKSLSLSPGK rule met
